# Tested on: giant foxtail (Setaria faberii)
# Test: Test C preemergence
# Type: in vivo
# Details: Preemergence; Rate 500 g/ha; scale 0 to 100
Readout name: Plant response rating, Foxtail, Giant
Lab note: jot the number down without any unit.

Recorded Plant response rating, Foxtail, Giant, per entry:
{"Molecule": "CC(C)c1ccn(C2SCN(c3cccc(OC(F)F)c3)C2=O)n1 (stereo not shown)", "Readout name": "Plant response rating, Foxtail, Giant", "Recorded value": 90}
{"Molecule": "CC(C)(C)c1ccn(C2CCN(c3cccc(C(F)(F)F)c3)C2=S)n1 (stereo not shown)", "Readout name": "Plant response rating, Foxtail, Giant", "Recorded value": 100}
{"Molecule": "O=C1C(n2ccc(C3CCC3)n2)SCN1c1cccc(OC(F)F)c1 (stereo not shown)", "Readout name": "Plant response rating, Foxtail, Giant", "Recorded value": 90}
{"Molecule": "CC(C)(C)c1ccn(C2CCN(c3cccc(Br)c3)C2=O)n1 (stereo not shown)", "Readout name": "Plant response rating, Foxtail, Giant", "Recorded value": 30}
{"Molecule": "O=C1C(n2ccc(C3CCCCC3)n2)SCN1c1cccc(OC(F)(F)F)c1 (stereo not shown)", "Readout name": "Plant response rating, Foxtail, Giant", "Recorded value": 100}

Field request: Plant response rating, Foxtail, Giant | item: O=C1C(n2ccc(C3CC3)n2)CCN1c1cccc(C(F)(F)F)c1 (stereo not shown)
100

# repeat for CC(C)(C)c1ccn(C2CCN(c3ccc(Cl)c(Br)c3)C2=O)n1 (stereo not shown)
90

* * *

# System: cocklebur (Xanthium strumarium)
# Test: Test C preemergence
# Type: in vivo
# Details: preemergence, Rate 250 g/ha, visual evaluation after 12 to 14 days
Returns: string. Value is 1 (yes) if measured Plant response rating (0 to 100), Cocklebur is below 10, and 0 (no) if it is greater than or equal to it.

Here are 3 compounds together with their reported answers.
{"Compound": "CCC(CC)c1ccn(C2CCN(c3ccc(C)c(OC)c3)C2=O)n1 (stereo not shown)", "Category label": "0 (no)"}
{"Compound": "CCC(CC)c1ccn(C2SCN(c3cccc(C(F)(F)F)c3)C2=O)n1 (stereo not shown)", "Category label": "0 (no)"}
{"Compound": "CC(C)(C)c1ccn(C2CCN(c3cccc(C(F)(F)F)c3)C2=S)n1 (stereo not shown)", "Category label": "1 (yes)"}

Hello, is Plant response rating (0 to 100), Cocklebur of the following compound strictly smaller than 10? CCC(C)c1ccn(C2CCN(c3ccc(C)c(OC)c3)C2=O)n1 (stereo not shown)
1 (yes)

# repeat for CC1(c2ccn(C3SCN(c4cccc(C(F)(F)F)c4)C3=O)n2)CC1 (stereo not shown)
0 (no)

# repeat for CC(C)(C)c1ccn(C2CCN(c3ccc(F)c(Br)c3)C2=O)n1 (stereo not shown)
1 (yes)

# repeat for O=C1C(n2ccc(C3CC3)n2)OCN1c1cccc(C(F)(F)F)c1 (stereo not shown)
1 (yes)

* * *

Measured Plant response rating, Pigweed accompanies every entry in the list below.
# Tested on: pigweed (Amaranthus retroflexus)
# Test: Test B postemergence
# Type: in vivo
# Details: Rate 125 g/ha, scale 0 to 100, 0 no effect, 100 complete control

{"Molecule": "Cc1ccnc(N2CCC(n3ccc(C(C)(C)C)n3)C2=O)c1 (centres unmarked)", "Plant response rating, Pigweed": 0}
{"Molecule": "CCCCC(CCCC)c1ccn(C2SCN(c3cccc(OC(F)(F)F)c3)C2=O)n1 (centres unmarked)", "Plant response rating, Pigweed": 50}
{"Molecule": "COc1cc(N2CCC(n3ccc(C(C)(C)C)n3)C2=O)cc2ccccc12 (centres unmarked)", "Plant response rating, Pigweed": 0}
{"Molecule": "CCC(C)c1ccn(C2CCN(c3ccc(Br)c(OC)c3)C2=O)n1 (centres unmarked)", "Plant response rating, Pigweed": 60}

Next:
Field request: Plant response rating, Pigweed | item: CCC(CC)c1ccn(C2CCN(c3ccc(F)c(C(F)(F)F)c3)C2=O)n1 (centres unmarked)
50

Cited source: patent US7138361B2
